# Tested on: HT-29
# assayNotes: In vitro antiproliferative activity against human colon carcinoma HT-29 cells
# Format: functional, cell-based
pIC50: −log10 of the molar value.
observedProperty: pIC50

> print(dat)
                                   compound  readoutnumber
1  CN1C(=O)c2c(c3c4ccccc4n(CC(O)CO)c3c3cc4ccccc4cc23)C1=O (stereo not given)           5.43

I = CN(C)CCCN1C(=O)c2c(c3c4cc(O)ccc4[nH]c3c3cc4ccccc4cc23)C1=O
II = O=C1c2c(c3c4cc(O)ccc4[nH]c3c3cc4ccccc4cc23)C(=O)N1C(CO)CO
III = C=CCn1c2ccccc2c2c3c(c4cc5ccccc5cc4c21)C(=O)N(C)C3=O
IV = CN(C)CCCN1C(=O)c2c(c3c4ccc(O)cc4[nH]c3c3cc4ccccc4cc23)C1=O
List items by pIC50 in falling order. List the labels according to the requested ordering.
I, IV, II, III
(I: 6.08, IV: 5.87, II: 5.54, III: 4.18)

* * *

# Test system: HT-29
# assayNotes: In vitro antiproliferative activity against human colon carcinoma HT-29 cells
# Format: functional, cell-based
observedProperty: IC50 (µM)

a = O=C1c2c(c3c4cc(O)ccc4[nH]c3c3cc4ccccc4cc23)C(=O)N1CCNCCO
b = O=C1c2c(c3c4ccc(O)cc4[nH]c3c3cc4ccccc4cc23)C(=O)N1CCNCCO
c = O=C1c2c(c3c4ccc(O)cc4[nH]c3c3cc4ccccc4cc23)C(=O)N1C(CO)CO
Put the entries in order of IC50, starting with the largest number. List the labels according to the requested ordering.
b, a, c
(b: 5.5 µM, a: 3.76 µM, c: 1.34 µM)
